# Test System: 17β-HSD10 (Homo sapiens)
# Construct: Histev (histidine tag with TEV site) (N, cleaved yes); made in house; host or cells: E. coli BL21-CodonPlus
# Sequence (Q99714 1-261): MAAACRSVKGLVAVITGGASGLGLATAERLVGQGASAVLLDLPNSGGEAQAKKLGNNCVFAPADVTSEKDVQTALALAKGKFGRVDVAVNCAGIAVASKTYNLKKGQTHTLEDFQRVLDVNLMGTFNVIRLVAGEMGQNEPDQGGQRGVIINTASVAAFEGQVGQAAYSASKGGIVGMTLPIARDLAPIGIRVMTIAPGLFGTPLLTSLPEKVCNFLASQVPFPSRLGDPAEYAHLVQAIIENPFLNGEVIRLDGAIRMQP
# Test Summary: 17β-HSD10 (ABAD) enzyme inhibition assay, NADH oxidation read at 340 nm (primary screen and dose response)
# Format: biochemical
# Condition Context: recombinant 17βHSD10 enzyme assay, curve fit
Parameter Measured: Hill Slope

Worked examples follow.
compound=CC(C)CN(C(=O)c1ccccc1F)c1cccc(N(C)Cc2c[nH]c(C(C)C)n2)c1 measured_value=0.93
compound="COc1cc(-c2ccccc2[C@@H]2CCCN2C(=O)c2sccc2Cl)ccc1F (racemic)" measured_value=1.2
compound=Cc1ccsc1C(=O)N1CCC[C@@H]1c1ccccc1-c1ccccc1 measured_value=1.4
compound="O=C(c1[nH]ncc1Cl)N1CCC[C@H]1c1ccccc1-c1cccc(O)c1 (single isomer, unassigned)" measured_value=1.1

A. O=C(c1sccc1Cl)N1CCC[C@H]1c1ccccc1-c1cc(O)ccc1F (single isomer, unassigned) [ESC1002843]
B. Cc1ccsc1C(=O)N1CCC[C@@H]1c1ccccc1-c1ccc(F)cc1
Enquiry: Quick one: lower Hill Slope, A or B ? I would appreciate it if you answered with the label of your choice.
Return: A
(A: 1.1, B: 2.3)
